Provenance of the data: patent US20230250160A1

Exercise: for every item that follows, state its recorded pKd.
Target Under Test: T1, Human recombinant Insulin (human, UniProt P01308 25-54; P01308 90-110, limits assumed)
T1 construct: also called bInsulin
T1 sequence (P01308 25-54 limits assumed, chain 1 of 2): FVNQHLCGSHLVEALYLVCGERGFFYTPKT
T1 sequence (P01308 90-110 limits assumed, chain 2 of 2): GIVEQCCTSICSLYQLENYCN
Protocol: SPR Biacore T200, target on CM5 chip, ADAPT injected, 1:1 fit
API: returns pKd as number; meaning -log10 of concentration in mol/L.

So, LAVAKAYAKYELAFYGVSDFYNELILKAKTVEGVEALKLHILAALP (designed binder, also called INS_03) [ADAPT variant Insulin_03] ? Its pKd was 5.89

So, LAIAKAYAQYELSFYGVSDFYRELIVKAKTVEGVEALKLHILAALP (designed binder, also called INS_02) [ADAPT variant Insulin_02] ? Its pKd was 6.17

So, LVIAKAYAQYELAFYGVSDFYSDLIKKAKTVEGVEALKLHILAALP (designed binder, also called INS_01) [ADAPT variant Insulin_01] ? Its pKd was 6.02
